The entries below are paired with their reported pIC50.
- measured target: SHP2 (Homo sapiens)
- test: SHP2 allosteric inhibition assay (DiFMUP prompt fluorescence)
- Format: biochemical
- experimental setup: Table 6; 0.25 nM SHP2, 0.5 μM IRS1_pY1172(dPEG8)pY1222 peptide, DiFMUP 100 μM
pIC50: −log10 of the molar value. Where a name gives a salt, the structure may show the parent alone.

Cn1c(N2CCC(C)(CN)CC2)nc2[nH]nc(N3CCc4ccccc43)c2c1=O: > 6.00

Can you look up pIC50 on SHP2 (Homo sapiens) for CC1(N)CCN(c2cc(=O)n3c(-c4cccc(Cl)c4F)n[nH]c3n2)CC1 [Compound F3, hydrochloride] ?
< 4.70

Also need Cn1c(N2CCC(C)(CN)CC2)nc2[nH]nc(Sc3cccc(Cl)c3)c2c1=O , thanks.
> 6.00

* * *

- measured target: SHP2 (Homo sapiens)
- test: SHP2 allosteric inhibition assay (DiFMUP prompt fluorescence)
- Format: biochemical
- experimental setup: Table 3; 0.25 nM SHP2, 0.5 μM IRS1_pY1172(dPEG8)pY1222 peptide, DiFMUP 100 μM
The entries below are paired with their reported IC50.

Would you please look over these solved cases?
Clc1ccc(-c2nc(CSc3nncs3)cs2)cc1: > 1000 µM
COc1cc(-c2nc(CN(C)c3ccc4c(c3)OCO4)cs2)ccc1O: < 500 µM
COc1cccc(-c2nc(CSc3nncs3)cs2)c1: 500 to 1000 µM

May I ask what IC50 has been recorded for C=C(C)CSc1nnc(SCc2csc(-c3ccc(OC)c(OC)c3)n2)s1 ?
> 1000 µM

Also need COc1cc(-c2nc(Cn3cccc(C(F)(F)F)c3=O)cs2)ccc1O , thanks.
< 500 µM

* * *

- measured target: SHP2 (Homo sapiens, UniProt Q06124)
- Sequence (Q06124 1-593): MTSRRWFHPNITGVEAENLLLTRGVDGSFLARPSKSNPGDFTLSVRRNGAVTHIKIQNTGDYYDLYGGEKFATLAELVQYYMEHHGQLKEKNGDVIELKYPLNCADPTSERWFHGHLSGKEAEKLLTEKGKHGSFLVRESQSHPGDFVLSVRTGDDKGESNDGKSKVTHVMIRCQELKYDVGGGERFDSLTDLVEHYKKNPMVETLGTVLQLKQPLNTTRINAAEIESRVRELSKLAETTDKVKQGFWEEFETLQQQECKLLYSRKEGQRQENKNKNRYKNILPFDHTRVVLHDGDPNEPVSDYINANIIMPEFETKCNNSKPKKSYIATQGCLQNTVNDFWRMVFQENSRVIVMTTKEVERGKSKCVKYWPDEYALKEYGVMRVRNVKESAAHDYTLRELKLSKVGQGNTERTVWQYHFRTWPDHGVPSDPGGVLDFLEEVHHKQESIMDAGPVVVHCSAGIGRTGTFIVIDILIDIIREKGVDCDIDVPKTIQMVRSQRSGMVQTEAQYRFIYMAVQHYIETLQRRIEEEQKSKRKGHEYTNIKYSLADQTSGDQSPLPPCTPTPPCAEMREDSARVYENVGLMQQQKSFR
- test: SHP2 allosteric inhibition assay (DiFMUP prompt fluorescence)
- Format: biochemical
- experimental setup: Table 4; 0.25 nM SHP2, 0.5 μM IRS1_pY1172(dPEG8)pY1222 peptide, DiFMUP 100 μM
Counter-ions that a name gives are not always drawn.
The entries below are paired with their reported IC50.

CC1(N)CCN(c2ncnc3c(-c4cccc(Cl)c4Cl)csc23)CC1 [Compound D1, formate]: 1 to 10 µM

# context switch: different compound, same IC50
May I ask what IC50 has been recorded for CC1(CN)CCN(c2ncnc3c(-c4cccc(Cl)c4Cl)csc23)CC1 [Compound D2] ?
1 to 10 µM
